System: common chickweed (Stellaria media)
procedure-summary: Postemergence herbicidal activity, chickweed
Type: in vivo
test-settings: Stellaria media, post-emergence, rate of application 0.3 Kg/Ha, rated after 12-17 days, read-out: Postemergence herbicidal activity (% control) STEME
Assign inhibition at 300 g/ha to each entry below.
Output should be the measured figure followed by the unit it is expressed in.

Cn1c(C(F)(F)F)cc(=O)n(-c2c(F)cc(Cl)c3[nH]c(C(F)(F)F)cc23)c1=O
90%
CCc1nc2c(-n3c(=O)cc(C(F)(F)F)n(C)c3=O)c(F)cc(Cl)c2[nH]1
100%
Cn1c(C(F)(F)F)cc(=O)n(-c2c(F)cc(Cl)c3[nH]c(C(F)(F)F)nc23)c1=O
100%

Please examine the following record next.
Problem: Which inhibition at 300 g/ha value belongs to CC(C)c1nc2c(-n3c(=O)cc(C(F)(F)F)n(C)c3=O)c(F)cc(Cl)c2o1 ?
Result: 100%
